- subject-of-test: Sigma 2 (Rattus norvegicus)
- Sequence (Q5U3Y7 1-176): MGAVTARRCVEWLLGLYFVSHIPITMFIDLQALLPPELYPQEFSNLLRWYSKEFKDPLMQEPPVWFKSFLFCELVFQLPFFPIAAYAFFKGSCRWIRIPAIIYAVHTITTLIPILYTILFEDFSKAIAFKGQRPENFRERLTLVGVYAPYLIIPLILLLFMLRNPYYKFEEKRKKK
- protocol-summary: biochemical
Counter-ions that a name gives are not always drawn.
For each record, write down the corresponding pKi.
One number for each entry, as −log10 of the molar value.

Examples with answers:
| compound | test-readout | assay-value |
| --- | --- | --- |
| N=c1sc2cc(C(F)(F)F)ccc2n1CC1CCN(CC(=O)c2ccc(F)cc2)CC1 [Example 23, dihydrochloride] | pKi | 8.14 |
| CN=c1sc2cc(Cl)ccc2n1CC1CCN(CC(O)c2ccc(F)cc2)CC1 (racemic) [Example 5, dihydrochloride] | pKi | 8.14 |
| CN=c1sc2cc(Cl)ccc2n1CC1CCN(C[C@H](O)c2ccc(F)cc2)CC1 [Example 27, dihydrochloride] | pKi | 7.77 |
| CN=c1sc2cc(Cl)ccc2n1CCCCN(C)CC(O)c1ccc(F)cc1 (racemic) [Example 30, dihydrochloride] | pKi | 7.60 |
| CN=c1sc2cc(Cl)ccc2n1CC1CCN(CC(=O)c2ccc(F)cc2)CC1 [Example 4, dihydrochloride] | pKi | 8.40 |
| N=c1sc2cc(Cl)ccc2n1CC1CCN(CC(=O)c2ccc(F)cc2)CC1 [Example 2, dihydrochloride] | pKi | 8.15 |
| CC(=O)N=c1sc2cc(Cl)ccc2n1CC1CCN(CC(=O)c2ccc(F)cc2)CC1 [Example 9, hydrochloride] | pKi | 8.03 |
| CN=c1sc2cc(Cl)ccc2n1CC1CCN(CC(=O)c2ccc(S(N)(=O)=O)cc2)CC1 [Example 21, dihydrochloride] | pKi | 7.77 |
| CN=c1sc2cc(Cl)ccc2n1CC1CCN(CC(O)c2ccc(F)cc2F)CC1 (racemic) [Example 22, dihydrochloride] | pKi | 8.03 |
| N=c1sc2cc(F)ccc2n1CC1CCN(CC(=O)c2ccc(F)cc2)CC1 [Example 19, dihydrochloride] | pKi | 7.68 |

// for each compound below, give its pKi
1. O=c1sc2ccc(Cl)cc2n1CC1CCN(CC(O)c2ccc(F)cc2)CC1 (racemic) [Example 40, hydrochloride]
2. N=c1sc2ccccc2n1CC1CCN(CC(=O)c2ccc(F)cc2)CC1 [Example 15, dihydrochloride]
3. N=c1sc2cc(Cl)ccc2n1CC1CCN(CC(O)c2cccc(F)c2)CC1 (racemic) [Example 11, dihydrochloride]

**Result**
[8.33, 7.55, 7.44]

// for each compound below, give its pKi
1. O=C(CN1CCC(Cn2c(=O)sc3ccc(Cl)cc32)CC1)c1ccc(F)cc1 [Example 39, hydrochloride]
2. CN=c1sc2cc(Cl)ccc2n1CC1CCN(C[C@@H](O)c2ccc(F)cc2)CC1 [Example 28, dihydrochloride]
3. O=c1sc2cc([N+](=O)[O-])ccc2n1CC1CCN(CC(O)c2ccc(F)cc2)CC1 (centres unmarked) [Example 36, hydrochloride]
4. N=c1sc2cc(Cl)ccc2n1CC1CCN(CC(O)C23CC4CC(CC(C4)C2)C3)CC1 (racemic) [Example 1, dihydrochloride]
5. O=C(CN1CCC(Cn2c(=O)sc3cc(Br)ccc32)CC1)c1ccc(F)cc1 [Example 31, hydrochloride]
6. O=C(CN1CCC(Cn2c(=O)sc3cc(Cl)ccc32)CC1)c1ccc(F)cc1 [Example 33, hydrochloride]

**Result**
8.51
7.72
7.51
8.06
8.20
8.35

// for each compound below, give its pKi
1. Cc1ccc2c(c1)sc(=N)n2CC1CCN(CC(=O)c2ccc(F)cc2)CC1 [Example 18, dihydrochloride]
2. N=c1sc2cc(Cl)ccc2n1CC1CCN(CC(O)c2ccc(F)c(F)c2)CC1 (racemic) [Example 6, dihydrochloride]
3. O=C(CN1CCC(Cn2c(=O)sc3cc([N+](=O)[O-])ccc32)CC1)c1ccc(F)cc1 [Example 35, hydrochloride]
4. O=c1sc2cc(Br)ccc2n1CC1CCN(CC(O)c2ccc(F)cc2)CC1 (racemic) [Example 32, hydrochloride]

**Result**
1: 7.64; 2: 7.60; 3: 7.89; 4: 8.40
